meta.source: ChEMBL document CHEMBL1143391

- PROCEDURE_TEXT: Binding affinity to HCV NS3 protease by spectrophotometry
- Set-up: species or system Hepacivirus hominis
ATTRIBUTE_MEASURED: Ki (nM)

| QUERY_SMILES | Ki / nM |
| --- | --- |
| C=CCNC(=O)C(=O)[C@@H]1CCCCCCCOC[C@H](NC(=O)N[C@H](C(=O)C2CC2)C2CCCCC2)C(=O)N2C[C@H]3[C@@H]([C@H]2C(=O)N1)C3(C)C | 160 |
| C=CCNC(=O)C(=O)[C@@H]1CCCCCCCO[C@@H](C)[C@H](NC(=O)N[C@H](CN2C(=O)CN(C)CC2=O)C(C)(C)C)C(=O)N2C[C@H]3[C@@H]([C@H]2C(=O)N1)C3(C)C | 6 |

I = C=CCNC(=O)C(=O)[C@@H]1CCCCCCCOC[C@H](NC=O)C(=O)N2C[C@H]3[C@@H]([C@H]2C(=O)N1)C3(C)C
II = C=CCNC(=O)C(=O)[C@@H]1CCCCCCCOC[C@H](NC(=O)N[C@H](CN2CCC(C)(C)CC2=O)C(C)(C)C)C(=O)N2C[C@H]3[C@@H]([C@H]2C(=O)N1)C3(C)C
III = C=CCNC(=O)C(=O)[C@@H]1CCCCCCCO[C@@H](C)[C@H](NC(=O)N[C@H](CN2C(=O)CC(C)(C)CC2=O)C(C)(C)C)C(=O)N2C[C@H]3[C@@H]([C@H]2C(=O)N1)C3(C)C
Hello, I need these entries ordered by Ki, highest reading first. Thanks! Form entry: ranked labels (order as requested). I, II, III
(I: 400 nM, II: 21 nM, III: 7 nM)
